Test: activity coefficient (dimensionless); of the first substance listed, at infinite dilution; xn = mol fraction of the nth substance listed
Conditions: 333.1 K; 101 kPa; Liquid; Chromatography; x1 = 0
Exercise: state measured activity coefficient for each of the molecules provided.
Form rule: numeric answer, no unit written next to it.

Given C#CCCCCC [1-heptyne] + CCCC[n+]1ccccc1.O=S(=O)([N-]S(=O)(=O)C(F)(F)F)C(F)(F)F , state its recorded activity coefficient. 5.03

# lookup: activity coefficient of c1ccccc1 [benzene] + CC[n+]1ccccc1.O=S(=O)([N-]S(=O)(=O)C(F)(F)F)C(F)(F)F 1.43

Record request: activity coefficient value, item Cc1cccc(C)c1 [1,3-dimethylbenzene] + CC[n+]1ccccc1.O=S(=O)([N-]S(=O)(=O)C(F)(F)F)C(F)(F)F 3.11

Any idea what activity coefficient was measured for C#CCCC [1-pentyne] + CCCC[n+]1ccccc1.O=S(=O)([N-]S(=O)(=O)C(F)(F)F)C(F)(F)F ? 2.04

Please report the recorded activity coefficient for CCO [ethanol] + CCCC[n+]1ccccc1.O=S(=O)([N-]S(=O)(=O)C(F)(F)F)C(F)(F)F . 1.8

Return reported activity coefficient; argument: CCc1ccccc1 [ethylbenzene] + CC[n+]1ccccc1.O=S(=O)([N-]S(=O)(=O)C(F)(F)F)C(F)(F)F 3.39

# input molecule: CC1CCCCC1 [methylcyclohexane] + CCCC[n+]1ccccc1.O=S(=O)([N-]S(=O)(=O)C(F)(F)F)C(F)(F)F ; wanted: its activity coefficient 10.1

Looking for the measured activity coefficient of C#CCCCC [1-hexyne] + CCCC[n+]1ccccc1.O=S(=O)([N-]S(=O)(=O)C(F)(F)F)C(F)(F)F , can you help? 3.29

May I ask what activity coefficient has been recorded for c1ccccc1 [benzene] + CCCCC[n+]1ccccc1.O=S(=O)([N-]S(=O)(=O)C(F)(F)F)C(F)(F)F ? 1.02

Report activity coefficient for C#CCCCCCC [1-octyne] + CCCC[n+]1ccccc1.O=S(=O)([N-]S(=O)(=O)C(F)(F)F)C(F)(F)F please. 7.34
